Values compiled from patent US20140377282A1.

Below, each entry is listed alongside its reported IC50.
target_or_test_system: T1, recombinant human KDR (human, UniProt P35968 20-764, limits assumed)
T1 construct: also called VEGFR2
T1 sequence (P35968 20-764 limits assumed): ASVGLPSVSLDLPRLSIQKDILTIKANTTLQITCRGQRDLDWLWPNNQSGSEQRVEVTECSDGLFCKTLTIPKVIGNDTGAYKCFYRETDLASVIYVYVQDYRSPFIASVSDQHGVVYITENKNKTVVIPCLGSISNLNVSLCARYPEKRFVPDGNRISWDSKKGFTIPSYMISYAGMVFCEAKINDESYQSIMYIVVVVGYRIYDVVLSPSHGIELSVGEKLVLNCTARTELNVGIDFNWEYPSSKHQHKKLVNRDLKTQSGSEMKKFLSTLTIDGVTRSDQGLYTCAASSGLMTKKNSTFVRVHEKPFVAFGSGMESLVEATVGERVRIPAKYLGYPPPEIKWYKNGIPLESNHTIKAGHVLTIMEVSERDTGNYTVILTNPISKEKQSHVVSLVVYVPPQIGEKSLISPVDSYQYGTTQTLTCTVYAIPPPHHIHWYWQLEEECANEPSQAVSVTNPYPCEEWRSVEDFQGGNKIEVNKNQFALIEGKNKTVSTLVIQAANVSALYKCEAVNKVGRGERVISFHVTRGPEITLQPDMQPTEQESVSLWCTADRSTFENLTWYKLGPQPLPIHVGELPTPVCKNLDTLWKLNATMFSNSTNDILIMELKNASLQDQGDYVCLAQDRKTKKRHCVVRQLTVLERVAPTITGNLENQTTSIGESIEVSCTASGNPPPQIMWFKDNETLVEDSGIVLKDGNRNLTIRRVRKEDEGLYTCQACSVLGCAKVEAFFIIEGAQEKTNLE
experiment_description: inhibition of KDR binding to VEGF, ligand-receptor binding assay
property_label: IC50 (nM)

# binder, observed_value
records = [
    ("rabbit anti-KDR antibody clone 43 (antibody, V domains shown, rabbit monoclonal antibody, recombinantly expressed and purified for characterization) VH: QSVEESGGRLVTPGTPLTLTCTVSGFSLSSYAMSWFRQAPGKGLEWIGLIRSSGATYYASWAKGRFTISKASTTVDLKFTSPTTEDTATYFCARVLWPGDIAYAYHNIWGPGTLVTVSS VL: DLVMTQTPSPVSAAVGGTVTINCQASEEIGGNLAWYQQKPGQPPKLLIYSASTLTSGVPSRFKGSGSGTEYTLTISDLECADAATYYCQYTYYGFSYVGPFGGGTEVVVK", 7.54),
    ("rabbit anti-KDR antibody clone 81 (antibody, V domains shown, rabbit monoclonal antibody, recombinantly expressed and purified for characterization) VH: QSVEESGGRLVTPGTPLTLTCTVSGFSLSTYAMSWFRQAPGKGLEWIGLIRSSGATYYASWAKGRFTISKASTTVDLKFTSPTTEDTATYFCARVLWPGDIAYAYHNIWGPGTLVTVSS VL: DLVMTQTPSPVSAAVGGTVTINCQASEEIGGNLAWYQQKPGQPPKLLIYSASTLTSGVPSRFKGSGSGTEYTLTINDLECADAATYYCQYPYYGFSYVGPFGGGTEVVVK", 4.56),
    ("rabbit anti-KDR antibody clone 92 (antibody, V domains shown, rabbit monoclonal antibody, recombinantly expressed and purified for characterization) VH: QSVEESGGRLVTPGTPLTLTCTVSGFSLSSNAMSWVRQAPGEGLEWIGTISSSGSTYYATWVKGRFTISKTSTTVDLKMTSLTAADTATYFCARGDDDVSDYFYYFPIWGPGTLVTVSS VL: AVVLTQTASPVSGAVGGTVTIKCQASQNIYNNLAWYRQKPGQPPKLLIYAASKLASGVPSRFSGSRSGTQFTLSISDLECADAATYYCQSYYFDSSSTDAAFGGGTEVVVK", 32.9),
]
